Attribute: IC50
STUDY_TARGET: human D2R/β-arrestin (Homo sapiens (Human))
Sequence (P14416 whole entry): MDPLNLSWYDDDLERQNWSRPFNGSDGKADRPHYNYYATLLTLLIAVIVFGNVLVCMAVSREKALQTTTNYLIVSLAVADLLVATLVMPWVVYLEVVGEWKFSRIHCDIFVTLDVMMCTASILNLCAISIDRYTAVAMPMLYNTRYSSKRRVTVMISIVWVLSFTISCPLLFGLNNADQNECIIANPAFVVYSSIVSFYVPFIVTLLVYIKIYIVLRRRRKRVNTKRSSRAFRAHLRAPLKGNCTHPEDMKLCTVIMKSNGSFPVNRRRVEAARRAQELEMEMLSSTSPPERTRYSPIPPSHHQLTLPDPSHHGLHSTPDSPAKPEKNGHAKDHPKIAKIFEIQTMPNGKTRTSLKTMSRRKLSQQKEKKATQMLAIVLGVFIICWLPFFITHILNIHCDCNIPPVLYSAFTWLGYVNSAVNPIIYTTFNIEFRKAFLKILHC
RUN_DESCRIPTION: cell-based
ASSAY_SETUP: β-arrestin Antagonist

COMPOUND	IC50
CC(C)N(CC1CCN(CCOc2ccccc2)CC1)C(c1ccc(Cl)cc1)c1ccccn1 (single isomer, unassigned) [Compound 103a]	100 to 1000 nM
CC(C)N(CC1CCN(CCOc2ccccc2)CC1)C(c1ccc(Cl)cc1)c1ccccn1 (centres unmarked) [Compound 103]	< 100 nM

====

Attribute: pEC50
STUDY_TARGET: human D2R/β-arrestin (Homo sapiens (Human))
RUN_DESCRIPTION: Gi/cAMP agonist assay (Lance Ultra cAMP, Forskolin)
Assay type: cell-based
ASSAY_SETUP: CHO-K1 cell line expressing human D2R/β-arrestin
pEC50: −log10 of the molar value.

COMPOUND	STUDY_TARGET	pEC50
O=C(NC(c1ccc(Cl)cc1)c1ccc(F)cn1)C1CCN(CCOc2ccccc2F)CC1 (centres unmarked) [Compound 92]	human D2R/β-arrestin (Homo sapiens (Human))	6.00 to 7.00
O=C(NC(c1ccc2c(c1)OC(F)(F)O2)c1ccccn1)C1CCN(CCOc2ccccc2F)CC1 (single isomer, unassigned) [Compound 94b]	human D2R/β-arrestin (Homo sapiens (Human))	> 7.00
COc1cccc(C(c2ccccn2)N(C)CC2CCN(CCOc3ccccc3)CC2)c1 (centres unmarked) [Compound 76]	human D2R/β-arrestin (Homo sapiens (Human))	> 7.00
O=C(NC(c1ccc(Cl)cc1)c1ccccn1)C1CCN(CCOc2ccc(F)cc2F)CC1 (single isomer, unassigned) [Compound 115a]	human D2R/β-arrestin (Homo sapiens (Human))	6.00 to 7.00
Fc1ccccc1OCCN1CCC(CNC(c2ccc3c(c2)OCO3)c2ccccn2)CC1 (centres unmarked) [Compound 139]	human D2R/β-arrestin (Homo sapiens (Human))	5.00 to 6.00
CC1(C(=O)NC(c2ccc(F)cc2)c2ccccn2)CCN(CCOc2ccccc2F)CC1 (centres unmarked)	human D2R/β-arrestin (Homo sapiens (Human))	> 7.00
O=C(NC(c1ccc2c(c1)OC(F)(F)O2)c1ccccn1)C1CCN(CCOc2ccccc2)CC1 (single isomer, unassigned) [Compound 119a]	human D2R/β-arrestin (Homo sapiens (Human))	< 4.52
O=C(NC(c1ccc(Cl)cc1)c1ccccn1)C1CCN(CCOc2cccc(Cl)c2)CC1 (single isomer, unassigned) [Compound 1a]	human D2R/β-arrestin (Homo sapiens (Human))	< 4.52

Values were extracted from patent US10752588B2.
